B1: glmS ribozyme (parent)
chain: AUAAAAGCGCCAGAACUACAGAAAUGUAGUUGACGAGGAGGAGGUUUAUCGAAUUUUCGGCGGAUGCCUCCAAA

- Variants of: B1
- assay-overview: self-cleavage kobs at 40 uM GlcN6P; higher = faster cleavage; RNA array
- details: with glucosamine-6-phosphate
Fewer inactive variants are shown than the library holds.
Measured self-cleavage kobs at 40 uM GlcN6P values are reported for all entries that follow.

Some variants with recorded self-cleavage kobs at 40 uM GlcN6P:
A15C U30A A48U | < 1e-05 s⁻¹
G40A U69A | < 1e-05 s⁻¹
G37A C68A | < 1e-05 s⁻¹

Fill in the blank: the reported self-cleavage kobs at 40 uM GlcN6P of A53U C67G is ____.
3.3e-05 s⁻¹

Fill in the blank: the reported self-cleavage kobs at 40 uM GlcN6P of U45C C70U is ____.
0.000103 s⁻¹

Fill in the blank: the reported self-cleavage kobs at 40 uM GlcN6P of G44A A48U C67A is ____.
< 1e-05 s⁻¹

Fill in the blank: the reported self-cleavage kobs at 40 uM GlcN6P of A14C U55A U56G is ____.
0.002 s⁻¹

Fill in the blank: the reported self-cleavage kobs at 40 uM GlcN6P of A6U G9U is ____.
< 1e-05 s⁻¹

Fill in the blank: the reported self-cleavage kobs at 40 uM GlcN6P of A42G U69A is ____.
0.000758 s⁻¹

Fill in the blank: the reported self-cleavage kobs at 40 uM GlcN6P of G37U A53U U55A is ____.
< 1e-05 s⁻¹

Fill in the blank: the reported self-cleavage kobs at 40 uM GlcN6P of U31G C68A is ____.
< 1e-05 s⁻¹

Fill in the blank: the reported self-cleavage kobs at 40 uM GlcN6P of G40U U55G is ____.
0.000102 s⁻¹

Fill in the blank: the reported self-cleavage kobs at 40 uM GlcN6P of A12C G29A G35C A52U U54A G60U C67G is ____.
< 1e-05 s⁻¹

Fill in the blank: the reported self-cleavage kobs at 40 uM GlcN6P of A15U A52C G59A C70A is ____.
< 1e-05 s⁻¹

Fill in the blank: the reported self-cleavage kobs at 40 uM GlcN6P of G38C U55G is ____.
< 1e-05 s⁻¹

Fill in the blank: the reported self-cleavage kobs at 40 uM GlcN6P of A15U G29U G60C is ____.
< 1e-05 s⁻¹

Fill in the blank: the reported self-cleavage kobs at 40 uM GlcN6P of G40U C50A G66U is ____.
< 1e-05 s⁻¹

Fill in the blank: the reported self-cleavage kobs at 40 uM GlcN6P of C10U A15G is ____.
< 1e-05 s⁻¹

Fill in the blank: the reported self-cleavage kobs at 40 uM GlcN6P of G41U C50A U57A is ____.
< 1e-05 s⁻¹

Fill in the blank: the reported self-cleavage kobs at 40 uM GlcN6P of G7C A12G C67A is ____.
< 1e-05 s⁻¹
